// provenance: paper PMC11291634

# measured-target: carboxylesterase Ha006a
# measurement-notes: ITC with purified protein, one-site model, […] °C
parameter: Kd

carboxylesterase Ha006a assay, molecule CCNc1nc(Cl)nc(NC(C)C)n1 [ATZ, atrazine] , recorded Kd = 57 µM
